Tgt: Rap guanine nucleotide exchange factor 3 (Homo sapiens)
Test method notes: Validation qHTS for antagonist of cAMP-regulated guanine nucleotide exchange factor 3 (EPAC1); further: nearly all actives have a fitted effect of over 75% in size; further: potency means the concentration at half of the fitted maximal effect
Assay setup: EPAC1 Rap1B-BODIPY-GDP exchange, fluorescence; series mostly up to 150 µM
In all, about 16,000 compounds went through this assay and about 120 (0.75%) were called active. About 4% were inconclusive and are not listed. The sample holds actives, similar compounds and a random draw of the others, so the mix is not that of the screen.
Readout label: Potency

Please review the following examples before continuing.
COc1ccc(-n2c(CNC(=O)c3ccccc3C(F)(F)F)nnc2SC)cc1 | inactive
O=S1(=O)CCO[C@H]2CCCC[C@@H]2N1Cc1ccccc1Br | inactive
CCCCC(CC)COS(=O)(=O)O (centres undefined) | inactive
O=S(=O)(NCc1ccccc1)[C@@H]1CC2C=CC1C2 (some centres undefined) | inactive
C[C@@H]1[C@H](c2ccccc2)OCCS(=O)(=O)N1Cc1ccccc1Br | inactive

Would you mind giving Potency for every molecule in the list below?
1. CCc1cccc2c(C(O)c3c[nH]c4ccccc34)c[nH]c12 (centres undefined)
2. Cc1ncc2c(c1CNC(=O)c1ccc3c(c1)OCO3)CCN(C(=O)c1cccc(-n3cccn3)c1)C2
3. Cc1ccc2c(c1)C(=O)[C@@]1(O)CCN(c3ccccc3)C1=N2
4. Cc1cccc(CN2CCc3nnc(C(C)NC(=O)C4CCOCC4)n3CC2)c1 (centres undefined)
5. C[C@]12C[C@H](O)CC(CO)(CO)C1[C@H](O)C[C@@]13CC4[C@@H](CC12)[C@@]4(C)C3 (some centres undefined)
6. CCN(CC)CCOc1ccccc1OC
7. Cc1ccccc1C(=O)NC(C)c1nnc2n1CCN(Cc1ccc(F)cc1)CC2 (centres undefined)

Result:
1. inactive
2. inactive
3. inactive
4. inactive
5. inactive
6. inactive
7. inactive

Would you mind giving Potency for every molecule in the list below?
1. Cn1cccc1C(=O)N1CCC[C@@]2(CCN(c3cccc(-c4ccccc4)c3)C2)C1
2. O.O.O.O.O.O.O.O=S(=O)([O-])[O-].[Co+2]
3. Nc1c(S(=O)(=O)O)cc(Nc2ccc(Nc3nc(Cl)nc(Nc4ccc(S(=O)(=O)O)cc4)n3)c(S(=O)(=O)O)c2)c2c1C(=O)c1ccccc1C2=O
4. CO[C@H]1C=CO[C@@]2(C)Oc3c(C)c(O)c4c(O)c(c(/C=N/N5CCN(C)CC5)c(O)c4c3C2=O)NC(=O)/C(C)=C\C=C[C@H](C)[C@H](O)[C@@H](C)[C@@H](O)[C@@H](C)[C@H](OC(C)=O)[C@@H]1C
5. CC(C)C[C@@H](CO)N1CCN(CCc2ccccc2)CCC1=O
6. CO[C@H]1C=CO[C@@]2(C)Oc3c(C)c(O)c4c(O)c(cc(O)c4c3C2=O)NC(=O)/C(C)=C\C=C/[C@H](C)[C@H](O)[C@@H](C)[C@@H](O)[C@@H](C)[C@H](OC(C)=O)[C@@H]1C
7. CCC1CN(CCNC(=O)c2cc(C(C)C)nn2C)Cc2cc(OC)ccc2O1 (centres undefined)

Result:
["inactive", "100 µM (active)", "22.4 µM (active)", "89.1 µM (active)", "inactive", "inactive", "inactive"]
